- assayedTarget: wild-type FLT3 phosphorylation in Baf3 FLT3 cells (Homo sapiens, UniProt P36888)
- Sequence (P36888 27-993): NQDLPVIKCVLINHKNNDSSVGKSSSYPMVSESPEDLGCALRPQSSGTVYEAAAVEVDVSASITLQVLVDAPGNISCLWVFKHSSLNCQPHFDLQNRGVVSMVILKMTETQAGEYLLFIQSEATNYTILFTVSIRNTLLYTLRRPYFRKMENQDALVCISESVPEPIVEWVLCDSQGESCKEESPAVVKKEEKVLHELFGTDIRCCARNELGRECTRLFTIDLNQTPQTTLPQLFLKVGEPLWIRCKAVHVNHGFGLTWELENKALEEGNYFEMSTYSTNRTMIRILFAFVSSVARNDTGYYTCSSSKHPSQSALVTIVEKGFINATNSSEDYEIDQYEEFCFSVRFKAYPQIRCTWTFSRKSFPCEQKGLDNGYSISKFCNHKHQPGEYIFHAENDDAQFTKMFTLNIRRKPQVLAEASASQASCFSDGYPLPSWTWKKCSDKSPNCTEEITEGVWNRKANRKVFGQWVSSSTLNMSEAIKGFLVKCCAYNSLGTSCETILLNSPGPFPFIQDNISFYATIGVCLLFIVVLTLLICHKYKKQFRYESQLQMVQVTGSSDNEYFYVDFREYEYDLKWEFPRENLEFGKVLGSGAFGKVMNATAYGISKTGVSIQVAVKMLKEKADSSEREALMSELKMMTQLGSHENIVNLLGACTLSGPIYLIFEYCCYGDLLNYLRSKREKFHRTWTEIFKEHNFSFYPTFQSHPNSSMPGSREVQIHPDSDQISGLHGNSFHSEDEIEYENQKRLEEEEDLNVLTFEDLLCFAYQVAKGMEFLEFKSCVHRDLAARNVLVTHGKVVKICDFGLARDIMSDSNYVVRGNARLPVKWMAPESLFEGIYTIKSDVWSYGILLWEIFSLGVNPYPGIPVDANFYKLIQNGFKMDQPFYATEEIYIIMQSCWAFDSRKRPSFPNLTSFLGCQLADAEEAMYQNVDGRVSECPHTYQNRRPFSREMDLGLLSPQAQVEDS
- assayText: Cell-Based FLT3 Receptor Elisa
- testContext: 1 hour compound, 100 ng/mL Flt ligand 10 min; uncertainty ±20%
Parameter: IC50. Scope: all listed entries.
Dear colleague, please return just the value in nM, with no unit written.

In the examples that follow, each entry is paired with its recorded IC50.
[
  {
    "compound": "CO/N=C/c1c(N)ncnc1N1CCC(NC(=O)Nc2ccc(OC3CCC3)nc2)C1 (stereo not shown)",
    "reported": 229
  },
  {
    "compound": "CO/N=C/c1c(N)ncnc1N1CCC(NC(=O)Nc2ccc(Cl)cc2)C1 (stereo not shown)",
    "reported": 309
  },
  {
    "compound": "CC(C)c1ccc(NC(=O)NC2CCN(c3ncnc(N)c3/C=N/OCC(=O)N3CCOCC3)C2)cc1 (stereo not shown)",
    "reported": 2400
  }
]

The recorded IC50 for entry CO/N=C/c1c(N)ncnc1N1CCC(NC(=O)Nc2ccc(Oc3ccccc3)cc2)CC1 equals 175

====

Each entry below lists one item and its recorded IC50 value.
- assayedTarget: isolated kinase domain of the human FLT3 receptor (a.a. 571-993) (Homo sapiens, UniProt P36888)
- Construct: isolated kinase domain of the human FLT3 receptor (a.a. 571-993)
- assayText: FLT3 Fluorescence Polarization Kinase Assay
- testContext: 10 nM FLT3 571-993, 150 uM ATP; uncertainty ±10%
- Experimental: FLT3 Fluorescence Polarization Kinase Assay To determine the activity of the FLT3 inhibitors of Formula I′ in an in vitro kinase assay, inhibition of the isolated kinase domain of the human FLT3 receptor (a.a. 571-993) was performed using the following fluorescence polarization (FP) protocol. The FLT3 FP assay utilizes the fluorescein-labeled phosphopeptide and the anti-phosphotyrosine antibody included in the Panvera Phospho-Tyrosine Kinase Kit (Green) supplied by Invitrogen. […]
Only the number, expressed in nM, is required.

[
  {
    "compound": "CO/N=C/c1c(N)ncnc1N1CCC(NC(=O)Nc2ccc(C3CCCCC3)cc2)CC1",
    "unitTag": "nM",
    "IC50": 78
  },
  {
    "compound": "CO/N=C/c1c(N)ncnc1N1CCC(NC(=O)Nc2ccc(OC3CCC3)nc2)CC1",
    "unitTag": "nM",
    "IC50": 410
  },
  {
    "compound": "CO/N=C/c1c(N)ncnc1N1CCC(NC(=O)Nc2ccc(Cl)cc2)CC1",
    "unitTag": "nM",
    "IC50": 34
  },
  {
    "compound": "CO/N=C/c1c(N)ncnc1N1CCC(NC(=O)Nc2ccc(N3CCOCC3)cc2)C1 (centres unmarked)",
    "unitTag": "nM",
    "IC50": 1100
  },
  {
    "compound": "CO/N=C/c1c(N)ncnc1N1CCC(NC(=O)Nc2ccc(N3CCCC3)cc2)C1 (centres unmarked)",
    "unitTag": "nM",
    "IC50": 4500
  }
]

IC50 measured on CO/N=C/c1c(N)ncnc1N1CCC(NC(=O)Nc2ccc(OC(C)C)cc2)CC1 = 460

Entry CO/N=C/c1c(N)ncnc1N1CCC(OC(=O)Nc2ccc(C(C)C)cc2)CC1 — recorded IC50 = 29

====

- Tested on: MV4-11 cells
- assayText: Inhibition of MV4-11 cell proliferation (CellTiterGlo, 72 hours)
- Type: cell-based
- testContext: Homo sapiens; 72 hours growth; uncertainty ±20%
Cut-off 500 nM on IC50: below means Yes, at or above means No.

Examples from the recorded data:
[
  {
    "compound": "CO/N=C/c1c(N)ncnc1N1CCC(NC(=O)Nc2ccc(C(C)C)cc2)C1 (centres unmarked) [Number 30]",
    "answerLabel": "Yes"
  },
  {
    "compound": "CO/N=C/c1c(N)ncnc1N1CCC(NC(=O)Cc2ccc(C(C)C)cc2)CC1 [Number 16]",
    "answerLabel": "No"
  },
  {
    "compound": "CC(C)c1ccc(NC(=O)NC2CCN(c3ncnc(N)c3/C=N/OCCN)C2)cc1 (centres unmarked) [Number 27]",
    "answerLabel": "No"
  },
  {
    "compound": "CO/N=C/c1c(N)ncnc1N1CCC(NC(=O)Nc2ccc(N3CCOCC3)cc2)CC1 [Number 14]",
    "answerLabel": "No"
  },
  {
    "compound": "CO/N=C/c1c(N)ncnc1N1CCC(NC(=O)Nc2ccc(OC3CCCC3)nc2)C1 (centres unmarked) [Number 21]",
    "answerLabel": "Yes"
  }
]

Prompt: Find out if reported IC50 for CO/N=C/c1c(N)ncnc1N1CCC(NC(=O)Nc2ccc(OC(C)C)cc2)C1 (centres unmarked) [Number 8] is less than 500 nM
Completion: Yes

Prompt: # strict comparison: is reported IC50 < 500 nM? input = CO/N=C/c1c(N)ncnc1N1CCC(NC(=O)Nc2ccc(OC3CCC3)nc2)CC1 [Number 15]
Completion: No

====

# IC50 per entry
- Tested on: MV4-11 cells
- assayText: Inhibition of MV4-11 cell proliferation (CellTiterGlo, 72 hours)
- Assay type: cell-based
- testContext: Homo sapiens; 72 hours growth; uncertainty ±20%

See these solved cases before continuing.
[
  {
    "molecule": "CO/N=C/c1c(N)ncnc1N1CCC(NC(=O)Nc2ccc(Oc3ccccc3)cc2)CC1",
    "reported": "0.856 µM"
  },
  {
    "molecule": "CO/N=C/c1c(N)ncnc1N1CCC(NC(=O)Nc2ccc(OC(C)C)cc2)CC1",
    "reported": "0.672 µM"
  },
  {
    "molecule": "CO/N=C/c1c(N)ncnc1N1CCC(NC(=O)Nc2ccc(OC3CCCC3)nc2)CC1",
    "reported": "0.651 µM"
  }
]

Consider CO/N=C/c1c(N)ncnc1N1CCC(NC(=O)Nc2ccc(Cl)cc2)C1 (stereo not shown) . Its measured IC50 is 0.735 µM

Record summary for CO/N=C/c1c(N)ncnc1N1CCC(NC(=O)Nc2ccc(OC3CCC3)nc2)C1 (stereo not shown) : reported IC50 = 0.398 µM

IC50 reading for CO/N=C/c1c(N)ncnc1N1CCC(OC(=O)Nc2ccc(OC(C)C)cc2)CC1 : 0.74 µM

The molecule listed as CO/N=C/c1c(N)ncnc1N1CCC(NC(=O)Nc2ccc(N3CCCC3)cc2)CC1 shows IC50 equal to 1.1 µM

IC50 measured on CO/N=C/c1c(N)ncnc1N1CCC(CC(=O)Nc2ccc(C(C)C)cc2)C1 (stereo not shown) = 0.031 µM

Per the records, this molecule ( CO/N=C/c1c(N)ncnc1N1CCC(NC(=O)Nc2ccc(Oc3ccccc3)cc2)C1 (stereo not shown) ) has IC50 equal to 0.371 µM

# IC50 of CO/N=C/c1c(N)ncnc1N1CCC(NC(=O)Nc2ccc(C3CCCCC3)cc2)C1 (stereo not shown) = 0.386 µM

Form field IC50, entry CO/N=C/c1c(N)ncnc1N1CCC(NC(=O)Nc2ccc(N3CCCCC3)cc2)CC1 : 0.587 µM

IC50 reading for CO/N=C/c1c(N)ncnc1N1CCC(NC(=O)Nc2ccc(Cl)cc2)CC1 : 0.89 µM

Item: CO/N=C/c1c(N)ncnc1N1CCC(NC(=O)Nc2ccc(N3CCOCC3)cc2)C1 (stereo not shown) | IC50: 0.569 µM
